- PROCEDURE_TEXT: Cytotoxicity assay against L6 cells
- Format: cell-based
- CONDITION: L6 cells (rat skeletal myoblasts); rat skeletal myoblast L6; mean ± margin of deviation of two independent determinations
Can you tell me IC50 for the items I'm about to list?
Enter your answer as a number in µM; do not include the unit.

Indicate its recorded IC50; the compound in question is CC1=C2CCC3(C)OC2(OC1)C1C3CCC(C)(O)C2CCC1(C)O2 (stereo not drawn)
58.7

Indicate its recorded IC50; the compound in question is C=C(C)C1CC(=O)CC2OC(C)(CC2=O)CC2C=C(C(=O)O2)C(OC)C1 (stereo not drawn) [Compound 21, 13-Epi-scabrolide C]
47.5

Indicate its recorded IC50; the compound in question is CCCCCCCCCCCCCCCCOP(=O)([O-])OCC[N+](C)(C)C [Miltefosine, reference compound]
143

Indicate its recorded IC50; the compound in question is `C/C1=C\[C@@H]2O[C@@H](O)[C@@]3(C)O[C@@]23CC/C(C)=C/CC[C@](C)(O)[C@@H](O)CC1`
56

Indicate its recorded IC50; the compound in question is `C=C1CO[C@H]2/C=C(\C)CC[C@@H](O)[C@@](C)(O)C/C=C/[C@](C)(O)CC[C@@]12O`
40.5

Indicate its recorded IC50; the compound in question is C=C(C)C1CCC23OC2C(CC(C)(O)C=C2C=C(C(=O)OC)C(OC)(C1)O2)OC3=O (stereo not drawn)
28.7

Indicate its recorded IC50; the compound in question is C=C1CCC2(O)C(=C)COC2C=C(C)CCC(O)C2(C)CCC1O2 (stereo not drawn)
43

Indicate its recorded IC50; the compound in question is CC1=CCCC(C)(O)C=CC(C(C)C)CCC(C)=CCC1 (stereo not drawn)
49.4

Indicate its recorded IC50; the compound in question is C=C1CCC2=C(C)C(=O)OC2C=C(C)CCC(O)C2(C)CCC1O2 (stereo not drawn)
33.2

Indicate its recorded IC50; the compound in question is C=C1CCC(C(C)C)C=CC(C)(O)CC=CC(C)(O)CCC1O (stereo not drawn)
48.6

Indicate its recorded IC50; the compound in question is `C/C1=C\[C@@H]2O[C@@H](O)[C@@]3(C)O[C@@]23CC/C(C)=C/CC[C@@]2(C)O[C@H]2CC1`
28.8
